# Target of assay: Cytochrome P450 2D6 (Homo sapiens)
# Protocol summary: Cytochrome P450 Family 2 Subfamily D Member 6 (CYP2D6) small molecule antagonists: luciferase reporter qHTS assay (AID 1671196); further: nearly all actives have a fitted effect of over 50% in size; further: potency means the concentration at half of the fitted maximal effect
# Cond: P450-Glo CYP2D6 enzyme assay, luciferin luminescence, 1 h; series mostly up to 115 µM
Results filed as inconclusive are left out. Calls of active or inactive are those of the source. The call rests on the fitted dose curve; in most records, active means well fitted inhibition curve with a large enough effect in the repeat runs; inconclusive means weak or mixed curves; inactive means no such curve, though single readings can be large or run the other way.
Quantity kind: Potency

Solved entries (count: 8):
| Molecule | Target of assay | Potency |
| --- | --- | --- |
| C=CC(C)(C)CC(=O)OC | Cytochrome P450 2D6 (Homo sapiens) | 63.5 µM (active) |
| NC(=O)Nc1ccc(Cl)cc1 | Cytochrome P450 2D6 (Homo sapiens) | inactive |
| CC(=O)Nc1ccccc1C | Cytochrome P450 2D6 (Homo sapiens) | inactive |
| CC(CCO)CCc1ccccc1 (stereo not drawn) | Cytochrome P450 2D6 (Homo sapiens) | inactive |
| COCC(O)CO (stereo not drawn) | Cytochrome P450 2D6 (Homo sapiens) | inactive |
| CCOC(=O)[C@@H](C)Oc1ccc(Oc2nc3ccc(Cl)cc3o2)cc1 | Cytochrome P450 2D6 (Homo sapiens) | 31.7 µM (active) |
| CC(C)C(=O)O | Cytochrome P450 2D6 (Homo sapiens) | inactive |
| CC(=O)[C@H]1CC[C@H]2[C@@H]3C=CC4=CC(=O)CC[C@@]4(C)[C@@H]3CC[C@]12C | Cytochrome P450 2D6 (Homo sapiens) | inactive |

The reported Potency value, Cytochrome P450 2D6 (Homo sapiens), for "Cc1nc2ccccn2c(=O)c1CCN1CCC(C(=O)c2ccc(F)cc2)CC1" reads 4.36 µM (active)

The reported Potency value, Cytochrome P450 2D6 (Homo sapiens), for CC1CC(=O)NN=C1c1ccc(NCC(C)(C)NCC(O)COc2cc(Cl)ccc2C#N)cc1 (stereo not drawn) reads 5.49 µM (active)

The reported Potency value, Cytochrome P450 2D6 (Homo sapiens), for N#C/C(=C1\SCC(c2ccccc2Cl)S1)n1ccnc1 (stereo not drawn) reads 2.19 µM (active)

----------
# Target of assay: Thyrotropin receptor (Homo sapiens)
# Protocol summary: qHTS assay to identify small molecule agonists of the thyroid stimulating hormone receptor (TSHR) signaling pathway (AID 1224843); further: nearly all actives have a fitted effect of over 45% in size
# Cond: TSHR-HEK293 cells, cAMP HTRF, agonist mode, 30 min; series mostly up to 92.4 µM
Results filed as inconclusive are left out. Active and inactive are the calls of the source. Calls come from the whole dose curve.
Quantity kind: activation

| Compound | activation |
| --- | --- |
| CCOC(=O)CC(=O)C(=O)OCC | inactive |
| Nc1nc(Cl)nc2c1ncn2[C@@H]1O[C@H](CO)[C@@H](O)[C@@H]1F | inactive |
| CCOC(=N)CC(=O)OCC | inactive |
| CCCOc1ccc(S(=O)(=O)N2CCN(CC)CC2)cc1-c1nc2c(CC)n(Cc3ccccn3)nc2c(=O)[nH]1 | inactive |

Reported activation ( "CCc1nn(CCCN2CCN(c3cccc(Cl)c3)CC2)c(=O)n1CCOc1ccccc1" ) = inactive

Reported activation ( "CCCCCCOC(=O)C(C)C" ) = inactive

Reported activation ( "CCCCCCCCCOC(C)=O" ) = inactive

----------
# Protocol summary: qHTS assay to identify small molecule antagonists of the progesterone receptor (PR) signaling pathway - cell viability counter screen (AID 1346798); further: nearly all actives have a fitted effect of over 50% in size
# Cond: PR-UAS-bla HEK293T viability, CellTiter-Glo luminescence, 16 h; series mostly up to 92.4 µM
Records with an inconclusive call do not appear. Activity calls are given as the source filed them. The call rests on the fitted dose curve; in most records, active means well fitted cell-killing curve with a large enough effect in the repeat runs; inconclusive means weak or mixed curves, or effect the other way; inactive means no such curve, though single readings can be large or run the other way.
Reply using exactly one outcome from active, inactive

Qu. Given "CCCCCCCCSCCO" , state the outcome it received in this test.
Ans. inactive

Qu. Given "C/C(=N/NC(=O)c1ccncc1)C(=O)O" , state the outcome it received in this test.
Ans. inactive

Qu. Given "O=Cc1c(Cl)cccc1Cl" , state the outcome it received in this test.
Ans. inactive

Qu. Given NCC1CCCC(CN)C1 (stereo not drawn) , state the outcome it received in this test.
Ans. inactive

Qu. Given "O=C(Nc1ccccc1)Nc1ccccc1" , state the outcome it received in this test.
Ans. inactive

Qu. Given C/C=C(\C)C(=O)OCCC(C)CCC=C(C)C (stereo not drawn) , state the outcome it received in this test.
Ans. inactive

Qu. Given "ON(Cc1ccccc1)Cc1ccccc1" , state the outcome it received in this test.
Ans. inactive

Qu. Given "CNCCCC1c2ccccc2C=Cc2ccccc21" , state the outcome it received in this test.
Ans. active

The reported numbers originate from PubChem BioAssay (Tox21).
